System: OVCAR-8 ovarian
experiment summary: NCI tumour cell line growth inhibition, 48 h
parameter measured: TGI

As a guide, the following entries are already answered.
Cc1ccc(S(=O)(=O)NCC2CCCCC2=O)cc1 (centres undefined) : > 100 µM
COc1ncnc(C2CC2)c1-c1ncc2cnn(Cc3ccc(-c4nc(C(F)(F)F)cn4C(C)C)cc3)c2n1 : > 100 µM
O=S(=O)([O-])c1ccc2c(c1)-c1nc-2nc2[n-]c(nc3nc(nc4[n-]c(n1)c1ccc(S(=O)(=O)[O-])cc41)-c1cc(S(=O)(=O)[O-])ccc1-3)c1ccc(S(=O)(=O)[O-])cc21.[Cu+2].[Na+] : > 100 µM

Continue with the next molecule.
Noted for C=C1C[C@@H]2O[C@H]3[C@H]4[C@@H](C[C@@H](C)[C@@H](OC(C)=O)[C@H]42)[C@@H](C)CO[C@@]3(C)[C@H](OC(C)=O)C[C@H]1O : its TGI reads > 100 µM

---

Test system: SR leukemia
experiment summary: NCI tumour cell line growth inhibition, 48 h
Attribute: TGI

As a guide, the following entries are already answered.
C=C(C=O)C1CCC2(C(=O)O)CCC3(C)C(CCC4C5(C)CCC(O)C(C)(C)C5CCC43C)C12 (stereo not given) : > 100 µM
Cc1cccc(-c2nc3ccc([N+](=O)[O-])cc3c(=O)o2)c1 : > 100 µM
O=C(O)CNc1cc(-c2ccccc2)nc(NCC(=O)O)n1 : > 100 µM
O=C(O)c1nc(-c2ccccc2)ncc1-c1nnnn1-c1ccccc1 : > 100 µM
CC(=O)n1nc(-c2ccccc2)n(/N=C/c2ccc([N+](=O)[O-])cc2)c1=O : > 100 µM
COc1ccc(C2CC(=O)CC(c3ccc(OC)cc3)C23C(=O)NC(=O)NC3=O)cc1 (stereo not given) : > 100 µM

Noted for N#CSC#Cc1ccc(C#CSC#N)cc1 : its TGI reads > 100 µM

Noted for Cn1cc(C2=C(c3ccc4ccccc4c3)C(=O)NC2=O)c2ccccc21 : its TGI reads > 25 µM

Noted for S=C(c1c[nH]c2ccccc12)N1CCOCC1 : its TGI reads > 100 µM

---

Attribute: TGI
System: HCC-2998 colon
experiment summary: NCI tumour cell line growth inhibition, 48 h

As a guide, the following entries are already answered.
COc1ncnc(C2CC2)c1-c1ncc2cnn(Cc3ccc(-c4nc(C(F)(F)F)cn4C(C)C)cc3)c2n1 : > 100 µM
CCOP(=O)(Cc1ccc(CP(=O)(OCC)OCC)n1C)OCC : > 100 µM
CCOc1nc(-c2ccccc2)cc2c(O)c(-c3nnco3)[nH]c(=O)c12 : > 100 µM

Noted for c1ccc(N=C2SC(=NC3CCCCC3)N(C3CCCCC3)C2=Nc2ccccc2)cc1 : its TGI reads > 100 µM

---

System: NCI/ADR-RES ovarian
experiment summary: NCI tumour cell line growth inhibition, 48 h
parameter measured: TGI

COCCOCc1nc(C#N)c(N)o1 : > 100 µM
N#C/C(C(=O)Nc1ccccc1)=C(/N)N1CCOCC1 : > 100 µM
COc1cc(Nc2cn[nH]c2-c2ccc(Cl)cc2)cc(OC)c1OC : > 36.8 µM
O=c1c2ccccc2[se]n1-c1cccnc1 : > 100 µM

Noted for COc1ccc(C(C)NNC(=O)c2ccncc2)c(OC)c1 (stereo unspecified) : its TGI reads > 100 µM

Noted for Cc1nc(N)sc1-c1ccnc(Nc2ccc(N3CCOCC3)cc2)n1 : its TGI reads > 100 µM
